Molecular target: acetylcholine receptor
Experiment: SPR, AchR immobilised on chip, peptide at 10 uM
Measurement label: Binding affinity (RU)

RWFQK [5mer-286] : 71
KGFYR [5mer-575] : 69
KRISK [5mer-251] : 70
KRYRR [5mer-287] : 68
RVRSK [5mer-598] : 84
KLRTK [5mer-572] : 58
RWLCR [5mer-592] : 56
KQIQK [5mer-584] : 76
RVYTK [5mer-591] : 61
RRYCK [5mer-567] : 63
